target: soluble IGF-1 receptor (human) (UniProt P08069); test: phage ELISA
Reported ratio over background values for a set of binders
experimental-readout: ratio over background

* YRGMVLGRISGGAGKAASERPARIGQKVSAVNFYDWFV [A6L-0-H3-IR] | 26
* YSCGDGFYSLLSDLLGGQFRC [20E2B-4-H12-IGFR] | 9.7
* CCLLCRFQQNFYDWFVCQGISRLRPL [H2CA-2-B4-IGFR] | 4.1
* IIGGFYSYFNSVLRLGT [NNRPγ-4-A1-IR] | 10.9
* AQPCGGFYGLLEQLVGRSVCD [20E2B-4-F10-IGFR] | 17.3
* QAVQPGFHEEFYDWFVRQVSTGVGGG [H2CA-4-H4-IGFR] | 4.1
* APDPSDFQEIFYDWFVRQVSRMPGGG [H2CA-1-A3-IGFR] | 3.8

Data credit: patent WO2001072771A2
